Origin of values: patent US20120316071A1

Target: T1, Recombinant Human DLL4 (delta-like protein 4) (human, UniProt Q9NR61 27-524)
T1 construct: also called rHuman DLL4; Delta-like 4
Assay: ELISA on coated DLL4, Fab at 12.5 nM (2-fold serial dilution)
A collection of binders and their measured ELISA signal
API note: the answer field is a bare number with no unit suffix.

# example entries with known answers
1. Fab VH5-51_IGHD5-18*01>3_IGHJ4*01 G100K/G104T G35V & V3-4_IGLJ1*01 (Fab, V domains shown, Fab; also called H:KT G35V & L:parent) VH: EVQLVQSGAEVKKPGESLKISCKGSGYSFTSYWIVWVRQMPGKGLEWMGIIYPGDSDTRYSPSFQGQVTISADKSISTAYLQWSSLKASDTAMYYCARRKYSYTYDYFDYWGQGTLVTVSS VL: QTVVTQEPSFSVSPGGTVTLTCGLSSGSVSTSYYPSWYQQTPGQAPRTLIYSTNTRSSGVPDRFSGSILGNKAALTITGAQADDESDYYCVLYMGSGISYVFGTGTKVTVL ... 0.244
2. Fab VH5-51_IGHD5-18*01>3_IGHJ4*01 G100K/G104T G24L & V3-4_IGLJ1*01 (Fab, V domains shown, Fab; also called H:KT G24L & L:parent) VH: EVQLVQSGAEVKKPGESLKISCKLSGYSFTSYWIGWVRQMPGKGLEWMGIIYPGDSDTRYSPSFQGQVTISADKSISTAYLQWSSLKASDTAMYYCARRKYSYTYDYFDYWGQGTLVTVSS VL: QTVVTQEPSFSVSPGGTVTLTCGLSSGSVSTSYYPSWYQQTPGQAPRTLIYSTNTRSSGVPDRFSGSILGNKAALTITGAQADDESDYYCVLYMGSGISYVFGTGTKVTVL ... 0.233
3. Fab VH5-51_IGHD5-18*01>3_IGHJ4*01 G100K/G104T T58A & V3-4_IGLJ1*01 (Fab, V domains shown, Fab; also called H:KT T58A & L:parent) VH: EVQLVQSGAEVKKPGESLKISCKGSGYSFTSYWIGWVRQMPGKGLEWMGIIYPGDSDARYSPSFQGQVTISADKSISTAYLQWSSLKASDTAMYYCARRKYSYTYDYFDYWGQGTLVTVSS VL: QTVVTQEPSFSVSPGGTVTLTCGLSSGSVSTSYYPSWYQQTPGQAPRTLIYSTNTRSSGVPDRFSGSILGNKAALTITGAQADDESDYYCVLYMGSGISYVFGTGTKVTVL ... 0.23
4. Fab VH5-51_IGHD5-18*01>3_IGHJ4*01 G100K/G104T (KT) & V3-4_IGLJ1*01 S52G (Fab, V domains shown, Fab; also called H:KT & L:S52G) VH: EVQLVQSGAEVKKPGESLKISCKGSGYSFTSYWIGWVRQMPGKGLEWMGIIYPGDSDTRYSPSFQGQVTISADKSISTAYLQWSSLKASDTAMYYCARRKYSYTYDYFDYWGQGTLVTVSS VL: QTVVTQEPSFSVSPGGTVTLTCGLSSGSVSTSYYPSWYQQTPGQAPRTLIYGTNTRSSGVPDRFSGSILGNKAALTITGAQADDESDYYCVLYMGSGISYVFGTGTKVTVL ... 0.215

Give the measured ELISA signal of Fab VH5-51_IGHD5-18*01>3_IGHJ4*01 G100K/G104T (KT) & V3-4_IGLJ1*01 R56Y (Fab, V domains shown, Fab; also called H:KT & L:R56Y) VH: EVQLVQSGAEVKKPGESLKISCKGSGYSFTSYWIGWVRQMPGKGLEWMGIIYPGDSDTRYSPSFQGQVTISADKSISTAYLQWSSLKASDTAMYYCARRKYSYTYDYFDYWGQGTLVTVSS VL: QTVVTQEPSFSVSPGGTVTLTCGLSSGSVSTSYYPSWYQQTPGQAPRTLIYSTNTYSSGVPDRFSGSILGNKAALTITGAQADDESDYYCVLYMGSGISYVFGTGTKVTVL .
0.184

Then what about the binder Fab VH5-51_IGHD5-18*01>3_IGHJ4*01 G100K/G104T (KT) & V3-4_IGLJ1*01 R56A (Fab, V domains shown, Fab; also called H:KT & L:R56A) VH: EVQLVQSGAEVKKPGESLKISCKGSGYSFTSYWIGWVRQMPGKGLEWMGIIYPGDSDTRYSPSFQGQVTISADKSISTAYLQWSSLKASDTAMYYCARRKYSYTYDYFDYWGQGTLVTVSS VL: QTVVTQEPSFSVSPGGTVTLTCGLSSGSVSTSYYPSWYQQTPGQAPRTLIYSTNTASSGVPDRFSGSILGNKAALTITGAQADDESDYYCVLYMGSGISYVFGTGTKVTVL ?
0.212

Then what about the binder Fab VH5-51_IGHD5-18*01>3_IGHJ4*01 G100K/G104T S28R & V3-4_IGLJ1*01 (Fab, V domains shown, Fab; also called H:KT S28R & L:parent; H:KT S28R & L:wt) VH: EVQLVQSGAEVKKPGESLKISCKGSGYRFTSYWIGWVRQMPGKGLEWMGIIYPGDSDTRYSPSFQGQVTISADKSISTAYLQWSSLKASDTAMYYCARRKYSYTYDYFDYWGQGTLVTVSS VL: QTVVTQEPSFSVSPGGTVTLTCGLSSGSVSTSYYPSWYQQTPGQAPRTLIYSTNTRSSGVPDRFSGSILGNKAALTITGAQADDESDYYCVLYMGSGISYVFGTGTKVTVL ?
0.309

Then what about the binder Fab VH5-51_IGHD5-18*01>3_IGHJ4*01 G100K/G104T T58D & V3-4_IGLJ1*01 (Fab, V domains shown, Fab; also called H:KT T58D & L:parent) VH: EVQLVQSGAEVKKPGESLKISCKGSGYSFTSYWIGWVRQMPGKGLEWMGIIYPGDSDDRYSPSFQGQVTISADKSISTAYLQWSSLKASDTAMYYCARRKYSYTYDYFDYWGQGTLVTVSS VL: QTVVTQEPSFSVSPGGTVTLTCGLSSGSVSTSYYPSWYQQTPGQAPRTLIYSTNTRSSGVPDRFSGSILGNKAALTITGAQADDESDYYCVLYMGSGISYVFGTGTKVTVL ?
0.223
